- Target System: TREK-1 (Homo sapiens)
- Construct: NP_055032.1, wild type, expressed in tsA201 cells
- Sequence (O95069 whole entry): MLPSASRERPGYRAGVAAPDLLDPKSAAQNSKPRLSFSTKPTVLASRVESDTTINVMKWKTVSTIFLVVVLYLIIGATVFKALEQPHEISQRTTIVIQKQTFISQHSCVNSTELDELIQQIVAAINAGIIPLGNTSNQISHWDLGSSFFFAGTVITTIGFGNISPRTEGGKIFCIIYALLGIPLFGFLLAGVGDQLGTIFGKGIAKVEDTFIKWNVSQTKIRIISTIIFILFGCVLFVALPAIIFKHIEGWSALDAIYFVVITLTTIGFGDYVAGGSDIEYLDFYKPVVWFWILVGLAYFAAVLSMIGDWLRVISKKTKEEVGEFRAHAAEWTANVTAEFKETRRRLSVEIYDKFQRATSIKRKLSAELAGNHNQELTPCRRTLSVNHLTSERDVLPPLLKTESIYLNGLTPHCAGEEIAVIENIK
- Assay Procedure: whole-cell patch-clamp, concentration-response
Property Label: IC50 (nM)
One number for each entry, in nM.

Ask: Return IC50 (reported value) for this compound: `CCCCC[C@H](O)CC[C@@H]1[C@H]2Cc3cccc(OCC(=O)O)c3C[C@H]2C[C@H]1O`
Result: 30
